- test_system: GlcA(b1-3)GlcNAc
- test_method_notes: glycan array binding signal (z-score within array); higher = stronger binding
- run_conditions: glycan notation: IUPAC condensed, linker removed
Many of the other results were omitted from the sample, so the strongest signals are more common in it than they were.
Classification field: enter rule met for glycan array binding signal (z-score) values not below 0.1, rule not met for values below it.

binder	class
Gal 9 (Canis lupus) (protein) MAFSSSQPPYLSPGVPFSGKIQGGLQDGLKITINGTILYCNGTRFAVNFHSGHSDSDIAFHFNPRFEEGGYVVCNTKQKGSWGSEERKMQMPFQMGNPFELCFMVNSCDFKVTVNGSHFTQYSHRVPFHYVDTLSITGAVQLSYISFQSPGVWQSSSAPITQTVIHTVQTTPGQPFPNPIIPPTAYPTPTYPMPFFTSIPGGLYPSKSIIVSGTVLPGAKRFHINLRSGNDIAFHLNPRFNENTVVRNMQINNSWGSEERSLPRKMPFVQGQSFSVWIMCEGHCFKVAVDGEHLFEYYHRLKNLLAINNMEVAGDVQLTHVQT	rule not met
Adiponectin (Rattus norvegicus), Q8K3R4 (protein) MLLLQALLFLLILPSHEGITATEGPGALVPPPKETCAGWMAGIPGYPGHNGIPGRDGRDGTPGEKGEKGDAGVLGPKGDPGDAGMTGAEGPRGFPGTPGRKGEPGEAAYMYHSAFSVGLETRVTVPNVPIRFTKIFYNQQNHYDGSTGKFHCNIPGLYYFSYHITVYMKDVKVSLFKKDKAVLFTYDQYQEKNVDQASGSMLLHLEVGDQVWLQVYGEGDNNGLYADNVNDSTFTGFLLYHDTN	rule not met
Erv41-EDTA (Saccharomyces cerevisiae), Q04651 (protein) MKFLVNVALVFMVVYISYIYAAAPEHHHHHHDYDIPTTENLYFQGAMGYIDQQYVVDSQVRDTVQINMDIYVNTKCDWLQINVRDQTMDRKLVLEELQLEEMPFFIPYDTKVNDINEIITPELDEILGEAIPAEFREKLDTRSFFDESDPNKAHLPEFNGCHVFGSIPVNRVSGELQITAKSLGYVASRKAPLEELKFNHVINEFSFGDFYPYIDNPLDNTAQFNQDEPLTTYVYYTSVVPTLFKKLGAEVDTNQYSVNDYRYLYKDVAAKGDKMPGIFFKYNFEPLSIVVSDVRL	rule not met
Mermaid3 (Stilbonema majum) (protein) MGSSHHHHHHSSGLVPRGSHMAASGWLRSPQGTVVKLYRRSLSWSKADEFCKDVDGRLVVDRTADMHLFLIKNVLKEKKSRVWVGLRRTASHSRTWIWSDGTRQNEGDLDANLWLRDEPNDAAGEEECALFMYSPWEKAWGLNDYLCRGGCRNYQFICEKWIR	rule met
BDCA2 ex-domain (Homo sapiens) (protein) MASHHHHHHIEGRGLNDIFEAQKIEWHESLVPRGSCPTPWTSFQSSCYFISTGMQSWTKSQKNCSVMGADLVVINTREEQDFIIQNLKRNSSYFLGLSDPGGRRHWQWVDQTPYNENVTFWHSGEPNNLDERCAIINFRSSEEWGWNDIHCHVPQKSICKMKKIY	rule not met
ArathEULS3 TAP (Arabidopsis thaliana) (protein) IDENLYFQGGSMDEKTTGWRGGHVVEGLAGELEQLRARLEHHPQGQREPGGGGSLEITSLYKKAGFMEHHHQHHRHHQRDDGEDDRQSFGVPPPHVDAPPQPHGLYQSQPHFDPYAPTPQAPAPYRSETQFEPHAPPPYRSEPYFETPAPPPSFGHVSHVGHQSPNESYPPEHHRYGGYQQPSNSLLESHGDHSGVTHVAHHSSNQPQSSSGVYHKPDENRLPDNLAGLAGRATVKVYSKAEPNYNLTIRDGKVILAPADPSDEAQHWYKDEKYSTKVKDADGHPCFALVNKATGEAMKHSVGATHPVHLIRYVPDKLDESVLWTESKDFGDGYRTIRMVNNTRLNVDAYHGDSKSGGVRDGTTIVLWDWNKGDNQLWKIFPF	rule not met
CFEM-SCL (Saccharomyces cerevisiae), O13547 (protein) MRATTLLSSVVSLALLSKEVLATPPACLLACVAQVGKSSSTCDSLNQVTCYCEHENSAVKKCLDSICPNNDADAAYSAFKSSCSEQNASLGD	rule not met
SLR2P2A3 (Tachypleus tridentatus), TAL2_TACTR (protein) MEKGTPPTHDSDNWMGRAKKIGNGGWNQFQFLFFDPNGYLYAVSKDKLYKASPPQSDTDNWIARATEIGSGGWSGSKFLFFHPNGYLYAVHGQRLYKALPPVSNQD	rule met
CLC (Homo sapiens), Q9UBD9 (protein) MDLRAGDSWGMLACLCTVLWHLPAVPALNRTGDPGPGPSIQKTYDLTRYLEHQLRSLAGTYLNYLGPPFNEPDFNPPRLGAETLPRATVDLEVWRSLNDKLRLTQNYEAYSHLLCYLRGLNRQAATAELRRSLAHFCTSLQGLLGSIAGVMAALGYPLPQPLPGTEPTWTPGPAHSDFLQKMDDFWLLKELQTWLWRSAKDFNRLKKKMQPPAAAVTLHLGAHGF	rule met
SSL (Salmo salar) (protein) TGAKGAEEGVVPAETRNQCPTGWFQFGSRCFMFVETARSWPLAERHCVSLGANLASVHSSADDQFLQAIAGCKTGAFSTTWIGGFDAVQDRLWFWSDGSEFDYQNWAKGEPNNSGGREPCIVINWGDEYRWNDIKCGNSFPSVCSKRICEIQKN	rule met

meta.source: the supplement of paper PMC8728848
